Data provenance is PubChem BioAssay (NCI).

system: KM12 colon; test: NCI-60 one-dose screen, 48 h (100 = growth as untreated, 0 = no growth, -100 = all killed); conditions: 10 µM unless noted
The panel holds about 83,000 compounds, 20% with a hit somewhere; the sample as a whole holds those more often. Activity calls are given as the source filed them. The calls were made as follows: active = growth percent below 10; inactive = the rest.
Property: growth

Before answering, review these 4 worked examples.
Molecule	growth
O=c1[nH]cnc2nc[nH]c12	196% (inactive)
CN(C)c1ccc(/C=N/Nc2nnc3n2N=C(c2ccc(Cl)cc2)CS3)cc1	101% (inactive)
CC(=O)N[C@@H](CCC(N)=O)C(=O)O	103% (inactive)
C=C1NC(=O)C(C(C)CC)NC(=O)C2CSCC(NC(=O)CCC(=O)O)C(=O)NC(Cc3ccccc3)C(=O)NC(C)C(=O)NC(CC(C)CC)C(=O)NC(C(=O)NC(Cc3ccccc3)C(=O)N3CCCC3C(=O)N2)C(C)OC(=O)C(CO)NC(=O)C(C(O)COC)N(C)C(=O)C(C(C)C)NC(=O)C(CC(C)CC)NC1=O (stereo unspecified)	2.09% [6 µM] (active)

List reported growth for each of these molecules:
1. COc1ccc(/C=C/C(=O)c2ccc(NC(=O)CSc3nnc(-c4ccc(OC)cc4)n3-c3ccccc3)cc2)cc1
2. CC(CN1CCN(C)CC1)CN1c2ccccc2Sc2ccc(C(F)(F)F)cc21 (stereo unspecified)
3. Oc1c(-c2cc(C(F)(F)F)[nH]n2)cc(Cl)c(OCc2ccc(Cl)cc2)c1-c1ccc(Cl)c(C(F)(F)F)c1
4. O=C(c1ccccc1)N(CCCCl)C(=O)N(CCCCl)C(=O)c1ccccc1
5. CC(C)CC(NC(=O)C(CCCN=C(N)N)NC(=O)OCc1ccccc1)C(=O)NC(CNC(=O)/C=C/c1ccccc1)C(C)C (stereo unspecified)
6. OC(c1cc(-c2ccc(C(F)(F)F)cc2)nc(-c2ccc(C(F)(F)F)cc2)c1)C1CCCCN1 (stereo unspecified)
7. Nc1nc(N)c2c(n1)NC(c1sc(Cl)nc1Cl)CC(c1ccccc1)=N2 (stereo unspecified)

A.
1. 102% (inactive)
2. 31.2% (inactive)
3. 1.97% (active)
4. 88.3% (inactive)
5. 105% (inactive)
6. -87.7% (active)
7. 47.9% (inactive)

Dear reader, for each entry below, please note its growth.
1. COc1ccc2[nH]c(C(=O)OCc3ccc4c(Br)cc(Br)c(O)c4n3)cc2c1
2. CCOc1cccc(/C=N/NC(=O)c2ccc(Nc3ccnc(C(F)(F)F)c3)cc2)c1O

A.
1. -48.6% (active)
2. 24.8% (inactive)

Below are 4 molecules. Give each one its growth.
1. COc1ccc(/C(=C\c2cc(OC)c(OC)c(OC)c2)C(=O)Nc2nc3ccc(Cl)cc3s2)cc1
2. COc1ccc(NC(=O)c2ccc(C(F)(F)F)nc2Nc2ccc(Cl)cc2C)cc1Cl
3. Cn1c(=O)c2[nH]c(Cc3ccc4c(c3)OCO4)nc2n(C)c1=O
4. C#CC[C@@H]1C[C@]2(C)[C@H]3CC[C@@H]4[C@H]5C(C(=C)C)CC[C@]5(C(=O)NCCCCN)CC[C@@]4(C)[C@]3(C)CC[C@H]2C(C)(C)[C@H]1OC(C)=O (stereo partly specified)

A.
1. 94.2% (inactive)
2. 24.3% (inactive)
3. 108% (inactive)
4. -66.8% (active)

For each entry beneath this line, provide reported growth.
1. COc1ccc(C2=NN(C=O)C(c3ccc(OS(=O)(=O)c4ccc(C)cc4)c(OC)c3)C2)cc1 (stereo unspecified)
2. CC(=O)c1ccc(Nc2nc(Cl)nc(Oc3c(Cl)cccc3Cl)n2)cc1

A.
1. 54.5% (inactive)
2. 98% (inactive)
